Tested on: transient receptor potential cation channel C4 beta (TRPC4), mouse
Experiment: activators of mouse TRPC4 channel, confirmation, cell-based, second round, Fluo4, HEK293 TRPC4beta/mu-opioid, 1 µM (AID 2461);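 for activation: 0% = wells without test compound as baseline of integrated fluorescence ratio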
Conditions: Fluo4 calcium fluorescence, at 1 µM; stronger effect = higher value
Activity calls are given as the source filed them.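 Rule for the calls: active = primary screen active and over 50% activation in each of two duplicate runs; inactive = the rest.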
REPORTED ENDPOINT: activation

COMPOUND	activation
CCOC(=O)C1(CCc2ccccc2)CCN(Cc2csc(C(C)=O)c2)CC1	inactive
O=[N+]([O-])c1ccc(N2CCNCC2)cc1N1CCCCCC1	inactive
COc1ccc(C(CNC(=O)CCc2ccsc2)N(C)C)cc1 (centres undefined)	129% (active)
CCC1=Nc2cc(C(=O)N3CCC4(CC3)OCCO4)ccc2Sc2ccc(Br)cc21	inactive
CN(C)C1(CNC(=O)c2ccc(Cl)c(S(=O)(=O)NCc3ccco3)c2)CCCCC1	71% (active)

Prompt: Return activation measured with transient receptor potential cation channel C4 beta (TRPC4), mouse given this compound: CCOc1c(Cl)cc(CNC(C)C(O)c2ccccc2)cc1OC (centres undefined)
Completion: inactive

Prompt: Next record, please: O=C(c1ccc(Cl)cc1)C1CCCN(C2CCSCC2)C1 (centres undefined)
Completion: inactive

Prompt: Again, but for Cc1ccc(-c2nc(N(C)C3CCN(C)CC3)c3ccccc3n2)cc1
Completion: inactive

Prompt: One more compound: CCOC(=O)C1(c2ccccc2)CCN(CCC(=O)Nc2ccccc2OC)CC1
Completion: inactive

Prompt: Item: O=[N+]([O-])c1ccc(N2CCCNCC2)c2ncccc12
Completion: 139% (active)

Prompt: Similarly, COc1ccc2[nH]cc(CCN(C)C)c2c1 ?
Completion: inactive

Prompt: Then CCCCc1ncc(CN2CCCC(C(=O)c3ccc(SC)cc3)C2)[nH]1 (centres undefined) ?
Completion: inactive

Prompt: What do you have for Cc1nc2ccccn2c1P(=S)(N1CCCCC1)N1CCCCC1 ?
Completion: inactive

Prompt: Also check COc1ccc(C[C@@H]2c3cc(O)c(OC)cc3CCN2C)cc1O
Completion: inactive

Prompt: Consider next the compound COc1cc(C)c(CNCCc2c[nH]c3ccccc23)cc1C in the same way.
Completion: inactive

Prompt: And CCOC(=O)C1(CCc2ccccc2)CCN(Cc2ccc(NC(C)=O)cc2)CC1 ?
Completion: 90% (active)

Prompt: What do we get for CCOc1cc(CNCCc2c[nH]c3ccccc23)cc(Cl)c1OC ?
Completion: inactive

Prompt: Same for CN(C)C=C1C(=O)N(C2CCCCC2)C(=O)N(C2CCCCC2)C1=O
Completion: inactive

Prompt: Follow-up entry: CC[C@@H](CO)NC(=O)[C@@H]1C=C2c3cccc4c3c(cn4C)C[C@H]2N(C)C1
Completion: 57% (active)

Prompt: # iterate: O=C(CCCc1ccccc1)NCCc1cnc[nH]1
Completion: inactive

Prompt: Would you mind doing CC(N)Cc1c[nH]c2cc3c(cc12)OCCO3 (centres undefined) as well?
Completion: 60% (active)

---

Test system: TRPC4 (transient receptor potential cation channel C4 beta), mouse
Test: positive allosteric modulators of mouse TRPC4, confirmation, cell-based, second round, Fluo-4, HEK293 TRPC4beta/mu-opioid, 1 µM (AID 2554)
Details: DAMGO EC20, Fluo-4 calcium flux, at 1 µM
Active and inactive are the calls of the source.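 Rule for the calls: active = primary screen hit whose fluorescence ratio, in both repeats, exceeds the weak agonist control mean by 3 SD; inactive = the rest.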
# output must be one of t (active), f (inactive)

Look over these answered cases.
MOLECULE	CLASS LABEL
COC(=O)C1=CCCN(C)C1	f
CCOC(=O)C1(CCc2ccccc2)CCN(Cc2csc(C(C)=O)c2)CC1	f
Cc1ccccc1CN1CCNCC1	f
c1ccc2sc(N3CCNCC3)nc2c1	f
CN1CCN(Cc2cc(=O)n3ccsc3n2)CC1	f

Prompt: Please state the recorded outcome for this molecule: Nc1ccccc1-[n+]1c(-c2ccccc2)cc(-c2ccccc2)cc1-c1ccccc1
Completion: t

Prompt: Let us now turn to COc1ccccc1CC(=O)N1CCN(CCc2ccccc2)CC1
Completion: f

Prompt: Can you handle COC(=O)C(Cc1ccc(N(CCCl)CCCl)cc1)N=Cc1ccccc1O (centres undefined) next?
Completion: f

Prompt: Follow-up item: COc1cc(C)c(CNCCc2c[nH]c3ccccc23)cc1C
Completion: f

Prompt: Same again, this time with FC(F)(F)c1ccc(CN2CCNCC2)cc1
Completion: t

Prompt: What do we get for O=[N+]([O-])c1ccc(N2CCNCC2)c(Cl)c1 ?
Completion: t

Prompt: Then what about the molecule COc1ccc2c(c1O)C13CCN(C)C(C2)C1CCC(=O)C3 (centres undefined) ?
Completion: f

Prompt: Also CCNc1cc(N2CCNCC2)ccc1[N+](=O)[O-] , if possible.
Completion: t
